Origin of values: the supplement of paper PMC3334620

Target: Zap1 (UniProt P47043)
Sequence: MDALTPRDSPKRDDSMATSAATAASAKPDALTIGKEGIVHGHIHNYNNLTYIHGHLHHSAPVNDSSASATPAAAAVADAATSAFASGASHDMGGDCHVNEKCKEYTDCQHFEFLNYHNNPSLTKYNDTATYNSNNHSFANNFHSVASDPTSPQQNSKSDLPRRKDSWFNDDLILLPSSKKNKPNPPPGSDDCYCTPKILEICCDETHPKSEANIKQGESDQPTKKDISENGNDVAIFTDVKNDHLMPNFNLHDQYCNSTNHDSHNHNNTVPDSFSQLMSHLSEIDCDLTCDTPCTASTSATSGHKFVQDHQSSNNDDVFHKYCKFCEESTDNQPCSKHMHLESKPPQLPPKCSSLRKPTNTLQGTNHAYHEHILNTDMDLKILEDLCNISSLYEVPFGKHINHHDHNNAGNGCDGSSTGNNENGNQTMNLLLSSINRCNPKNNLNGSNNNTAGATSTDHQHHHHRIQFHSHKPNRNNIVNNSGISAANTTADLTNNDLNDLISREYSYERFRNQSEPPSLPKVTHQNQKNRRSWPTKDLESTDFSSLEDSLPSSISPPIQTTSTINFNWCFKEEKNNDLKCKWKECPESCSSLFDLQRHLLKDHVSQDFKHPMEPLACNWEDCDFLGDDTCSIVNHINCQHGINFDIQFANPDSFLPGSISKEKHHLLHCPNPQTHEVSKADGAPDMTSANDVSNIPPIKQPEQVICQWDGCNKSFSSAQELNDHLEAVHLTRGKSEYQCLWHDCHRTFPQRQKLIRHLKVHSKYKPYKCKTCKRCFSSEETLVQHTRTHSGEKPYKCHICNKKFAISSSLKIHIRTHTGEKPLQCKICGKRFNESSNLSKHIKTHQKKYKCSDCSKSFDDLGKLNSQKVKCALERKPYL
Experiment: PBM E-score (8-mer binding enrichment) (E-score (-0.5 to 0.5)); higher = stronger / more preferred TF binding
Conditions: protein concentration: 200 nM; construct: GST-full length
Whole data set: some 33,000 sequences, median “E-score (-0.5 to 0.5)” near -0.021, cut for the highest 2% near 0.32. Shown is part of a subset that was picked to be rich in the highest values.
Decide using PBM E-score: a value greater than or equal to 0.1 is true, a smaller one is false.

As a guide, the following entries are already answered.
AAATAACC
true
AACCCCCT
false
AAATAACG
false
TACCCCTA
true
GGACCCTA
true
AGTGGGAA
false

Query: Quick check: does CAATAACC have PBM E-score greater than or equal to 0.1?
Response: true

Query: How about this sequence: AACCCCTT
Response: true

Query: How about this sequence: CTTCTCCC
Response: false

Query: How about this sequence: CTCGATCC
Response: false

* * *

Biological target: Zap1 (UniProt P47043)
Sequence: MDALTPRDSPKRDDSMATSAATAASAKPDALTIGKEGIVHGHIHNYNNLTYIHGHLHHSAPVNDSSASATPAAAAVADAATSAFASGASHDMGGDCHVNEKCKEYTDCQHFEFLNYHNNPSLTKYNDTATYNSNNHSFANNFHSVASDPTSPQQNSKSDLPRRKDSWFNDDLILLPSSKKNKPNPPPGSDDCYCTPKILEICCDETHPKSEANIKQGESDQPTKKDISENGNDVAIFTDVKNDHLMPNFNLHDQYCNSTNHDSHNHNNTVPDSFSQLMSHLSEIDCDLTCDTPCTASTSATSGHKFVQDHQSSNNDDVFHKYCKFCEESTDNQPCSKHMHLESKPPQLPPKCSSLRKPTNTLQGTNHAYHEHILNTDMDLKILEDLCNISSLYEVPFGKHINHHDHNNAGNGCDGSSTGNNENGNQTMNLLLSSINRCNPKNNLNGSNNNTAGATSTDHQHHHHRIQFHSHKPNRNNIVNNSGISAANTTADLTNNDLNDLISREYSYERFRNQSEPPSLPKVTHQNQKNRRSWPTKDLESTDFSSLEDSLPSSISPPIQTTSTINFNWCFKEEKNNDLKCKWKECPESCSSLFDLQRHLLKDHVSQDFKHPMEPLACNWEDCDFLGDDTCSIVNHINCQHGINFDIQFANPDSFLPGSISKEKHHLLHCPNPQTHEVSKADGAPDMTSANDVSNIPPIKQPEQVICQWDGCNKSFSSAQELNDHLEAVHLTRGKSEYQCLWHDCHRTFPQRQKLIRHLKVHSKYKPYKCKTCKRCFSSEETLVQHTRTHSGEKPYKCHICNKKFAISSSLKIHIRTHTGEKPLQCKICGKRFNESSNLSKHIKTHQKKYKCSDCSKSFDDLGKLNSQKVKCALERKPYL
Test: PBM E-score (8-mer binding enrichment) (E-score (-0.5 to 0.5)); higher = stronger / more preferred TF binding
Conditions: protein concentration: 200 nM; construct: GST-full length
Whole data set: some 33,000 sequences, median “E-score (-0.5 to 0.5)” near -0.021, cut for the highest 2% near 0.32. For the sample, the highest values were picked, then their nearest neighbours and some sequences at random.
# PBM E-score listing for each entry below
// return just the number, without any unit appended

GGGTGACA
0.252

Query: Query (sequence): GTCTGGTA ; field requested: PBM E-score
Response: 0.146

Query: How about this sequence: TAGACATA
Response: 0.0776

Query: How about this sequence: AACGGTTA
Response: 0.397

Query: How about this sequence: AGACCGGG
Response: 0.0501

* * *

Target: Zap1 (UniProt P47043)
Sequence: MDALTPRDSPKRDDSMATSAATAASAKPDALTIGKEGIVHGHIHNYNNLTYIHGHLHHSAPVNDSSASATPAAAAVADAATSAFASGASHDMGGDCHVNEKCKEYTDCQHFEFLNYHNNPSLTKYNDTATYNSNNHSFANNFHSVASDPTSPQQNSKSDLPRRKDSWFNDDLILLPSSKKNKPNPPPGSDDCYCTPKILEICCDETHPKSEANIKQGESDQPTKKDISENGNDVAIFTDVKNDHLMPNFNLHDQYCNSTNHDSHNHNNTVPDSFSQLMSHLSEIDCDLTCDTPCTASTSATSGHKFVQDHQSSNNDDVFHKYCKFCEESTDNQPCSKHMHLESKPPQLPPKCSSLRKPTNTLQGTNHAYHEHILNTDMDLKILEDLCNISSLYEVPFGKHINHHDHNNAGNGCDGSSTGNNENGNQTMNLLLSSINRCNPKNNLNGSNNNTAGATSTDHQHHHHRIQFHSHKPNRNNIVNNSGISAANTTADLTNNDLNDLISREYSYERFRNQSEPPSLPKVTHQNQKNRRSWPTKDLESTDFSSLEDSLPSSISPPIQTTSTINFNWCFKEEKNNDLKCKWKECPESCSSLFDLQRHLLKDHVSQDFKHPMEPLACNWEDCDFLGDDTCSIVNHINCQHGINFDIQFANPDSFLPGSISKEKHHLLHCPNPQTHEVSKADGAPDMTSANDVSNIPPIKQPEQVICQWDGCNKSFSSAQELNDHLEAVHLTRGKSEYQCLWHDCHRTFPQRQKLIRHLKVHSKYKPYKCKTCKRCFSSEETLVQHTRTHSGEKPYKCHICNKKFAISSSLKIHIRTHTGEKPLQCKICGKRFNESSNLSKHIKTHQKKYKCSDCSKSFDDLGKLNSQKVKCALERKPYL
Test: PBM E-score (8-mer binding enrichment) (E-score (-0.5 to 0.5)); higher = stronger / more preferred TF binding
Settings: protein concentration: 200 nM; construct: GST-full length
Whole data set: some 33,000 sequences, median “E-score (-0.5 to 0.5)” near -0.021, cut for the highest 2% near 0.32. This is one part of a sample in which the highest values are shown more often than they occur.
Classification by PBM E-score | ranges: lower band (below -0.09), central band (-0.09 to below 0.1), upper band (0.1 or more)

Query: Lab note: sort CGCCAATC into the matching PBM E-score band.
Response: lower band

Query: How about this sequence: GGGGTTAA
Response: upper band

Query: How about this sequence: AGTGCCCC
Response: lower band

* * *

Biological target: Zap1 (UniProt P47043)
Sequence: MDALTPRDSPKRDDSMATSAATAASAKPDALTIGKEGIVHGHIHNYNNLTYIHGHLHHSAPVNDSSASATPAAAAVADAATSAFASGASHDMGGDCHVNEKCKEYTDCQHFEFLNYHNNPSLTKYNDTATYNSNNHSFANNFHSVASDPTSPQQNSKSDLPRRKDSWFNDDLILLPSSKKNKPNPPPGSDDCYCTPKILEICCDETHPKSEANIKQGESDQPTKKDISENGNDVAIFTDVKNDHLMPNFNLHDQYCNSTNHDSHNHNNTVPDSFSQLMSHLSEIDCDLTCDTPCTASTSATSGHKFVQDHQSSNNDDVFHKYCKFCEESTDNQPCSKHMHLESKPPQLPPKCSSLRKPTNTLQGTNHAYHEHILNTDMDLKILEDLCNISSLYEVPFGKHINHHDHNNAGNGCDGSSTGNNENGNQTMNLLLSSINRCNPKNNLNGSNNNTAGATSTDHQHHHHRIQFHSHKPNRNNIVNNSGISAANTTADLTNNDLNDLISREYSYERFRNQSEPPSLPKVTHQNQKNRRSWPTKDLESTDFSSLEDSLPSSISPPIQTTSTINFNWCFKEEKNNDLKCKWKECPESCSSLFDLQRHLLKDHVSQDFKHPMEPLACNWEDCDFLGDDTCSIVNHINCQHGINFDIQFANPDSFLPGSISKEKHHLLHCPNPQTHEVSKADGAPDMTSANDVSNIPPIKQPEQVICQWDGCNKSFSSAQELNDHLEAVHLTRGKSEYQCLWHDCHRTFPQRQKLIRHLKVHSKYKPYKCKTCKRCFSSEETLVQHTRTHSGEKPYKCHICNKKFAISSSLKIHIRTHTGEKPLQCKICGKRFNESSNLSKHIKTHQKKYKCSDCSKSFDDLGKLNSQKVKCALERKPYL
Experiment: PBM E-score (8-mer binding enrichment) (E-score (-0.5 to 0.5)); higher = stronger / more preferred TF binding
Details: protein concentration: 200 nM; construct: GST-full length
Over roughly 33,000 sequences, “E-score (-0.5 to 0.5)” has its median near -0.021; the highest 2% begin near 0.32. The sample holds the highest values, similar sequences and a random draw of the others, so the mix is not that of the screen.
value.type: PBM E-score
// return just the number, without any unit appended

Recorded PBM E-score, per entry:
AACCTGTA
0.324
ACCCTGAA
0.399
CGCAACCA
0.283
AGGAACCC
0.104
AGAGAGAC
-0.00859

Query: Query (sequence): TGACAAAA ; field requested: PBM E-score
Response: 0.152

Query: How about this sequence: CTCAGGCA
Response: -0.158

Query: How about this sequence: CGCTAGCC
Response: -0.373

Query: How about this sequence: GCCCTGAA
Response: 0.0835
